Could you please report measured Ki for the items listed next?
molecular target: delta opioid receptor (Rattus norvegicus); experiment: Rat Brain Delta Opioid Receptor Binding Assay; details: rat forebrain membranes, ~4 nM [3H]DPDPE, 25° C., 2.5 h; read-out: δ-opioid binding (Ki)
Sequence (P33533 whole entry): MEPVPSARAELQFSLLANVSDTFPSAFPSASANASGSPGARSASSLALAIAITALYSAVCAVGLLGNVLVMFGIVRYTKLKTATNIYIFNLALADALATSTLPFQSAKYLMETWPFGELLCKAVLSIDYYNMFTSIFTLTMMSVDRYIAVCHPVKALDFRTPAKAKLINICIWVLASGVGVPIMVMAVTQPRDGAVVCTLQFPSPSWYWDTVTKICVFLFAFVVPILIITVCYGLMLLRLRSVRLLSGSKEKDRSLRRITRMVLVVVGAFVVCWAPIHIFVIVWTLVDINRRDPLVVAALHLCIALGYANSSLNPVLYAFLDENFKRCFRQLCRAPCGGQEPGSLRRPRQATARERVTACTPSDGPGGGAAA
Respond with the bare value in µM.

Ask | State its Ki: `NCc1ccc(C[C@H](N)C(=O)N2CCCC[C@H]2c2nc(-c3ccccc3)c[nH]2)cc1`
Reply | 7.52

Ask | Note Ki for the compound shown: `CN(C)C(=O)c1ccc(C[C@H](N)C(=O)N2CCCC[C@H]2c2nc(-c3ccccc3)c[nH]2)cc1`
Reply | 0.764

Ask | Complete the entry with Ki for `Cc1cc(O)cc(C)c1C[C@H](NC=O)C(=O)N1CCCC[C@H]1c1nc(-c2ccccc2)c[nH]1`
Reply | 5.23

Ask | Tell me measured Ki for `N[C@@H](Cc1ccc(O)c([N+](=O)[O-])c1)C(=O)N1Cc2ccccc2C[C@H]1c1nc(-c2ccccc2)c[nH]1` please.
Reply | 50
